study target: T1, human NMI (N-myc Interacting protein), recombinant protein (human, UniProt Q13287 1-307, limits assumed)
T1 construct: Gene ID: 9111; also called hNMI; antigen
T1 sequence (looked up): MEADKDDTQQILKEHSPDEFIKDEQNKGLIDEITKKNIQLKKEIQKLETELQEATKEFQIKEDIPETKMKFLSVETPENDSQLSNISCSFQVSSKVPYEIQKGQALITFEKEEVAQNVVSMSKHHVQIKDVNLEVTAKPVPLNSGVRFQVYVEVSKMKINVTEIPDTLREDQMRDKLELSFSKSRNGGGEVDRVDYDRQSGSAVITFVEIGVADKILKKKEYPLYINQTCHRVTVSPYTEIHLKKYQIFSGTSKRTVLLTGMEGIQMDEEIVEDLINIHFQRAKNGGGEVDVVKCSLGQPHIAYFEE
test summary: ELISA, binding to hNMI
test readout: EC50 (µg/mL)
Numbers only, in µg/mL.

Answered cases to consult:
binder: 98G10-H-12 (antibody, V domains shown, also called 98G10 W34H, Y112S (VH)) VH: QEQLEESGGDLVKPEGSLTLTCTASGFSFSASYHICWVRQAPGKGLEWIACIYGGSSGSAYYASWAKGRFTISKTSSTTVTLQMTSLTAADTATYFCARAGYYNYGSAGDISPSSFKLWGPGTLVTVSS VL: DIVMTQTPASVEAAVGGTVTINCQASQSISTALAWYQQKPGQPPKLLIYTASKVASGVPSRFSGSGSGTQFTLTISDLECADAATYYCQNYYYSSSSITFGGGTEVVVK
EC50 (µg/mL): 0.081
//
binder: 98G10-H-6 (antibody, V domains shown, also called 98G10 Y112Q (VH)) VH: QEQLEESGGDLVKPEGSLTLTCTASGFSFSASYWICWVRQAPGKGLEWIACIYGGSSGSAYYASWAKGRFTISKTSSTTVTLQMTSLTAADTATYFCARAGYYNYGSAGDIQPSSFKLWGPGTLVTVSS VL: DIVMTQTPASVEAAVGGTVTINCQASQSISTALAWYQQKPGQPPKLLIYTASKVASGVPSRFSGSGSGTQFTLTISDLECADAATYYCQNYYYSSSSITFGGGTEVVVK
EC50 (µg/mL): 0.092
//
binder: 98G10-H-2 (antibody, V domains shown, also called 98G10 W34Y (VH)) VH: QEQLEESGGDLVKPEGSLTLTCTASGFSFSASYYICWVRQAPGKGLEWIACIYGGSSGSAYYASWAKGRFTISKTSSTTVTLQMTSLTAADTATYFCARAGYYNYGSAGDIYPSSFKLWGPGTLVTVSS VL: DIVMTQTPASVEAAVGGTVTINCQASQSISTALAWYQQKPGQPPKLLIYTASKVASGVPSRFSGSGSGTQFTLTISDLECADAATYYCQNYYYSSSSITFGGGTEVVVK
EC50 (µg/mL): 0.507
//
binder: 98G10-L-2 (antibody, V domains shown, also called 98G10 Y93S (VL)) VH: QEQLEESGGDLVKPEGSLTLTCTASGFSFSASYWICWVRQAPGKGLEWIACIYGGSSGSAYYASWAKGRFTISKTSSTTVTLQMTSLTAADTATYFCARAGYYNYGSAGDIYPSSFKLWGPGTLVTVSS VL: DIVMTQTPASVEAAVGGTVTINCQASQSISTALAWYQQKPGQPPKLLIYTASKVASGVPSRFSGSGSGTQFTLTISDLECADAATYYCQNYYSSSSSITFGGGTEVVVK
EC50 (µg/mL): 0.053

Next binder, EC50 to be filled in.
// fetch EC50 given entry 98G10-H-3 (antibody, V domains shown, also called 98G10 Y112R (VH)) VH: QEQLEESGGDLVKPEGSLTLTCTASGFSFSASYWICWVRQAPGKGLEWIACIYGGSSGSAYYASWAKGRFTISKTSSTTVTLQMTSLTAADTATYFCARAGYYNYGSAGDIRPSSFKLWGPGTLVTVSS VL: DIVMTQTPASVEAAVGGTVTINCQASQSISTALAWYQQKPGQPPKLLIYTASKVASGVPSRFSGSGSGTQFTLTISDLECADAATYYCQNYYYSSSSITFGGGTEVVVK 0.028

Origin of the recorded values: patent EP4682166A1
